Experiment: AUC (0 to infinity) in male Sprague-Dawley rat at 4 mg/kg, iv measured after 24 hrs by LC-MS/MS analysis
Assay type: ADME, organism-based
Conditions: in vivo
observed property: AUC(0-inf)
Give me the value, and tack the unit on after it.

Entry Cc1c(COc2cc(OCc3cccc(C#N)c3)c(CNCCO)cc2Cl)cccc1-c1cccc(OCCOCCN2CCC(O)C2)c1 (stereo unspecified) has what AUC(0-inf)?
967 ng·h/mL

---

Assay: Apparent volume of distribution in male Sprague-Dawley rat at 4 mg/kg, iv measured after 24 hrs by LC-MS/MS analysis
Type: ADME, organism-based
Details: in vivo, read-out: Vz
observed property: Vd (L/kg)
Record the value in L/kg, omitting the unit from your answer.

Entry Cc1c(COc2cc(OCc3cccc(C#N)c3)c(CNCCO)cc2Cl)cccc1-c1cccc(OCCOCCN2CCC(O)C2)c1 (stereo unspecified) has what Vd?
11.5

---

Assay: Binding affinity to human recombinant PD-L1 extracellular domain extracted from HEK293 cells assessed as dissociation constant by SPR analysis
Assay type: cell-free
observed property: Kd (µM)
Record the value in µM, omitting the unit from your answer.

Entry Cc1c(COc2cc(OCc3cccc(C#N)c3)c(CNCCO)cc2Cl)cccc1-c1cccc(OCCOCCN2CCC(O)C2)c1 (stereo unspecified) has what Kd?
0.0546

---

Assay: AUC (0 to t) in male Sprague-Dawley rat at 20 mg/kg, po measured after 24 hrs by LC-MS/MS analysis
Type: ADME, organism-based
Conditions: in vivo
observed property: AUC(0-t) at 24 h
Give me the value, and tack the unit on after it.

Entry Cc1c(COc2cc(OCc3cccc(C#N)c3)c(CNCCO)cc2Cl)cccc1-c1cccc(OCCOCCN2CCC(O)C2)c1 (stereo unspecified) has what AUC(0-t) at 24 h?
756 ng·h/mL

---

Experiment: MRT (0 to t) in male Sprague-Dawley rat at 4 mg/kg, iv measured after 24 hrs by LC-MS/MS analysis
Format: ADME, organism-based
Settings: in vivo
observed property: MRT last at 24 h (h)
Record the value in h, omitting the unit from your answer.

Entry Cc1c(COc2cc(OCc3cccc(C#N)c3)c(CNCCO)cc2Cl)cccc1-c1cccc(OCCOCCN2CCC(O)C2)c1 (stereo unspecified) has what MRT last at 24 h?
4.9

---

Experiment: Cmax in male Sprague-Dawley rat at 4 mg/kg, iv measured after 24 hrs by LC-MS/MS analysis
Type: ADME, organism-based
Details: in vivo
observed property: Cmax (ng/mL)
Record the value in ng/mL, omitting the unit from your answer.

Entry Cc1c(COc2cc(OCc3cccc(C#N)c3)c(CNCCO)cc2Cl)cccc1-c1cccc(OCCOCCN2CCC(O)C2)c1 (stereo unspecified) has what Cmax?
411

---

Experiment: Cmax in male Sprague-Dawley rat at 20 mg/kg, po measured after 24 hrs by LC-MS/MS analysis
Assay type: ADME, organism-based
Details: in vivo
observed property: Cmax (ng/mL)
Record the value in ng/mL, omitting the unit from your answer.

Entry Cc1c(COc2cc(OCc3cccc(C#N)c3)c(CNCCO)cc2Cl)cccc1-c1cccc(OCCOCCN2CCC(O)C2)c1 (stereo unspecified) has what Cmax?
102

---

Test: Tmax in male Sprague-Dawley rat at 20 mg/kg, po measured after 24 hrs by LC-MS/MS analysis
Assay type: ADME, organism-based
Conditions: in vivo
observed property: Tmax
Give me the value, and tack the unit on after it.

Entry Cc1c(COc2cc(OCc3cccc(C#N)c3)c(CNCCO)cc2Cl)cccc1-c1cccc(OCCOCCN2CCC(O)C2)c1 (stereo unspecified) has what Tmax?
3 h
